Assay: NPC library primary testing for decreased DLD-1 cell viability via CellTiter-Glo (AID 1117346)
Conditions: DLD-1 viability, CellTiter-Glo luminescence; at 20 µM (top of the series)
Attribute Measured: viability decrease (inhibition) (%)
Answer format: numeric, % implied, no suffix.

>>> value_reported("CC(C)(C(=O)c1cccnc1)c1cccnc1")
-9.4
>>> value_reported("C[C@@H]1C[C@H]2[C@@H]3CCC4=CC(=O)C=C[C@]4(C)[C@@]3(F)[C@@H](O)C[C@]2(C)[C@H]1C(=O)CO")
-5
>>> value_reported("CC1(C)S[C@@H]2[C@H](N=CN3CCCCCC3)C(=O)N2[C@H]1C(=O)O")
-12.8
>>> value_reported("Cn1c(=O)c2c(ncn2C)n(C)c1=O")
7.2
>>> value_reported("CCOC(=O)n1ccn(C)c1=S")
5.3

Next molecule, viability decrease (inhibition) to be filled in.
Ask: Note down viability decrease (inhibition) recorded for "CC/C(=C(/CC)c1ccc(O)cc1)c1ccc(O)cc1"
Reply: 98.4

====

Experiment: HCT116 colon cancer cell growth inhibition, primary screen, CellTiter-Glo luminescence, NPC library (AID 1117342)
Details: at 20 µM (top of the series)
Attribute Measured: inhibition of viability (%)
# number only, unit % dropped from output

>>> value_reported("CC(C)(C)NC(=O)[C@H]1CC[C@H]2[C@@H]3CC[C@H]4NC(=O)C=C[C@]4(C)[C@H]3CC[C@]12C")
5.67
>>> value_reported("Nc1ccc(C(=O)O)cc1")
-6.1
>>> value_reported("CN(C)CC[C@@H](c1ccc(Br)cc1)c1ccccn1")
27.2

Ask: Give the reported value of inhibition of viability for this record: "C/C=C(/C(=C/C)c1ccc(O)cc1)c1ccc(O)cc1"
Reply: 101

Ask: Please report inhibition of viability for the following molecule: "C[N+](C)(C)CCCCCC[N+](C)(C)C"
Reply: 13.3

Ask: Annotate the molecule O=C(NC(Cc1cc(=O)[nH]c2ccccc12)C(=O)O)c1ccc(Cl)cc1 (stereo not drawn) with its measured inhibition of viability.
Reply: 3.17

Ask: Give reported inhibition of viability value for COCCc1ccc(OCC(O)CNC(C)C)cc1 (stereo not drawn)
Reply: 12.1

Ask: Give a short answer stating reported inhibition of viability for "O=C(O)[C@@H]1[C@H]2C[C@H]3c4[nH]c5ccccc5c4CCN3C[C@@H]2CC[C@@H]1O" .
Reply: -4.53

====

Overview of reported fluorescence ratio across a group of compounds:
Test: compounds distorting NS3 helicase fluorescence signal – biochemical, NIH Clinical Collection, artefact control for HCV NS3 helicase inhibitor project (AID 743272);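 also: HCV NS3 helicase with a Cy5 labelled single stranded DNA probe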
Conditions: fluorescence interference counterscreen, HCV NS3 helicase assay; stronger effect = lower value
Answer with a bare number; do not write a unit.

>>> value_reported("O=C(O)/C=C/c1ccc(Cn2ccnc2)cc1")
0.97
>>> value_reported("COc1cc(OC)c(C(=O)CCCN2CCCC2)c(OC)c1")
0.97
>>> value_reported("CCOC(=O)c1ncn2c1CN(C)C(=O)c1cc(F)ccc1-2")
0.99

Ask: Name the recorded fluorescence ratio of the item "O=C(c1ccc(F)cc1)C1CCN(CCn2c(=S)[nH]c3ccccc3c2=O)CC1" in your answer.
Reply: 1.06

Ask: Answer with the recorded fluorescence ratio of "CN1CCC(=C2c3ccccc3CC(=O)c3sccc32)CC1" only.
Reply: 0.93

Ask: Return the recorded fluorescence ratio value; entry: "CCN1CCC[C@H]1CNC(=O)c1c(O)c(Cl)cc(Cl)c1OC"
Reply: 0.77

====

Assay: blockers of polyQ-driven CASP3 activation – cell-based (AID 1583)
Settings: polyglutamine-induced caspase-3 activation, cell assay; stronger effect = higher value; concentration not given here
Attribute Measured: inhibition (%)
# unit: % | format: bare number

>>> value_reported("CC(C)NCC(O)c1ccc2ccccc2c1 (stereo unspecified)")
0.74
>>> value_reported("Cc1cc2cc3c(C)cc(=O)oc3c(C)c2o1")
-5.8
>>> value_reported("CC(=O)NO")
31.8
>>> value_reported("CCC(=O)O[C@H]1[C@H](O[C@@H]2[C@@H](C)[C@H](O[C@H]3C[C@@](C)(OC)[C@@H](O)[C@H](C)O3)[C@@H](C)C(=O)O[C@H](CC)[C@@](C)(O)[C@H](O)[C@@H](C)C(=O)[C@H](C)C[C@@]2(C)O)O[C@H](C)C[C@@H]1N(C)C")
-0.34
>>> value_reported("CS(=O)(=O)c1ccc([C@@H](O)[C@@H](CO)NC(=O)C(Cl)Cl)cc1")
-7.88

Ask: Given "Nc1nc(=S)c2[nH]cnc2[nH]1" , respond with its inhibition.
Reply: 7.19

====

Test: Wnt pathway potentiators raising nuclear beta-catenin – imaging, WNT3A-conditioned medium, mouse C2C12, NPC library, primary screen (AID 1117326)
Settings: at 10 µM, stronger effect = higher value
Attribute Measured: nuclear beta-catenin stimulation (%)
The reply should contain only the number, in %.

>>> value_reported("C#C[C@]1(O)CC[C@H]2[C@@H]3[C@H](C)CC4=C(CCC(=O)C4)[C@H]3CC[C@@]21C")
7.4
>>> value_reported("Cc1nnc(NS(=O)(=O)c2ccc(N)cc2)s1")
-0.1
>>> value_reported("COC(=O)N/N=C/c1c[n+]([O-])c2ccccc2[n+]1[O-]")
1.7
>>> value_reported("NS(=O)(=O)c1cc2c(cc1Cl)NC(C(Cl)Cl)NS2(=O)=O (stereo unspecified)")
-0.1
>>> value_reported("Cc1cn([C@H]2C=C[C@@H](CO)O2)c(=O)[nH]c1=O")
-0.2

Ask: Supply measured nuclear beta-catenin stimulation of "Cc1c(NC(=O)c2cccnc2)c(=O)n(-c2ccccc2)n1C" in your reply.
Reply: -1.7

====

Experiment: RCMB18 cell growth, single agent and combined, cisplatin and BGB IC40 combos (AID 1671462);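 also: cells exposed to compound for four days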
Settings: RCMB18 medulloblastoma cells, single agent, at 5 µM, stronger effect = higher value
Attribute Measured: inhibition (%)
Give just the number in %; leave the unit off.

A selection of reference data follows.
>>> value_reported("Cc1oncc1C(=O)Nc1ccc(C(F)(F)F)cc1")
34.1
>>> value_reported("Cc1ccnc2c1NC(=O)c1cccnc1N2C1CC1")
-19.9
>>> value_reported("O=C(O)P(=O)(O)O")
-27.5
>>> value_reported("CCN1CCN(c2cc3c(cc2F)c(=O)c(C(=O)O)cn3C2CC2)CC1")
-19.4
>>> value_reported("O=NN(CCCl)C(=O)NCCCl")
-38.3

Ask: Given "NC(=O)NO" , respond with its inhibition.
Reply: -32.4

Ask: Please report the measured inhibition for "O=C(O)CCCCCCCC(=O)O"
Reply: -26.4

Ask: Item "C[C@H]1COc2c(C3(N)CC3)c(F)cc3c(=O)c(C(=O)O)cn1c23" : provide inhibition
Reply: -38.1

Ask: Could you please provide reported inhibition for "Nc1[nH]c(=O)ncc1F" ? Thanks!
Reply: 67.5

Ask: Complete the entry with inhibition for CC(N)C12CC3CC(CC(C3)C1)C2 (stereo unspecified)
Reply: -26.9

Ask: Please give the documented inhibition of "Nc1nc2c(ncn2COC(CO)CO)c(=O)[nH]1"
Reply: 88.8

====

The following molecules are listed with their measured score values.
Test: yeast 75Q aggregation reduction – 75Q-TubU reporter (AID 1593)
Conditions: Yeast 75Q polyglutamine aggregation reporter
Reply: number alone, nothing else.

>>> value_reported("NCCCC[C@H](N[C@@H](CCc1ccccc1)C(=O)O)C(=O)N1CCC[C@H]1C(=O)O")
0.98

Below: the item to evaluate.
Ask: Please list score recorded for the molecule "CC1(C)OC(=O)NC1=O"
Reply: 1.47

====

Experiment: JHH-DIPG-1 glioma cell viability, MIPE5.0 library, CellTiter-Glo luminescence, qHTS (AID 1347067);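 also: cells exposed to compound for 48 hours before readout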
Conditions: JHH-DIPG-1 glioma viability, CellTiter-Glo ATP luminescence
Results filed as inconclusive are left out. Activity calls are given as the source filed them. The limit is not given here; nearly all actives have AC50 up to about 26 µM.
Response enum: 1 for active, -1 for inactive

>>> category("Cc1ccc(S(=O)(=O)NC(=O)NN2CC3CCCC3C2)cc1 (stereo not drawn)")
-1
>>> category("Cc1nnc(NS(=O)(=O)c2ccc(N)cc2)s1")
-1
>>> category("Cn1c(=O)c2c(ncn2C)n(C)c1=O")
-1
>>> category("CC1(C)NC(=O)N(c2ccc([N+](=O)[O-])c(C(F)(F)F)c2)C1=O")
-1
>>> category("CN(C)CCc1c[nH]c2ccc(CS(=O)(=O)N3CCCC3)cc12")
-1
>>> category("CN1CCC(=C2c3ccccc3CCc3sccc32)CC1")
-1
>>> category("CC(C)(C#N)c1cc(Cn2cncn2)cc(C(C)(C)C#N)c1")
-1
>>> category("Clc1ccc(C(c2ccccc2Cl)C(Cl)Cl)cc1 (stereo not drawn)")
1

Ask: Fill in: this test's call for "Cc1cc2cc3c(C)cc(=O)oc3c(C)c2o1" is ___
Reply: -1

Ask: Fill in: this test's call for O=C(NC(Cc1cc(=O)[nH]c2ccccc12)C(=O)O)c1ccc(Cl)cc1 (stereo not drawn) is ___
Reply: -1

Ask: Assay outcome for "Cc1cnc(C(=O)O)c[n+]1[O-]" : what was it?
Reply: -1

Ask: Each compound tested received a call. Report the one for "C[C@]12CC[C@@H]3c4ccc(O)cc4CC[C@H]3[C@@H]1C[C@@H](O)[C@@H]2O" .
Reply: 1

Taken from PubChem BioAssay.
